B1: Cytoplasmic polyadenylation element-binding protein 2, residues 513 to 575; numbered along this chain, Q7Z5Q1 (parent)
chain: KRVEVKPYVLDDQMCDECQGARCGGKFAPFFCANVTCLQYYCEFCWANIHSRAGREFHKPLVK

- Variants of: B1
- assay_notes: abundance fitness (aPCA) (normalised: wild type 0, dead -1); higher = more abundant; growth selection in yeast, the domain comes from the species named
- experimental_parameters: Homo sapiens
Decide by abundance fitness: equal to or exceeding -0.05 means rule met, less means rule not met.

variant_notation	qualitative_label
E4L	rule not met
S51M	rule met
T36H	rule not met
F57S	rule met
W46C	rule not met
E56Q	rule not met
M14V	rule not met
H58C	rule not met
V3Y	rule not met
N34T	rule not met

-- ask Check if abundance fitness >= -0.05 (inclusive). Item: Q13G
-- reply rule not met

-- ask Item Q39M with abundance fitness of -0.05 or above?
-- reply rule met

-- ask Does the reported abundance fitness for Y41M fall at or above the -0.05 mark?
-- reply rule not met

-- ask In plain terms: is recorded abundance fitness at least -0.05 for L10C ?
-- reply rule not met

-- ask Check this variant for abundance fitness at or above -0.05: C37H
-- reply rule not met

-- ask Test whether the variant C37L records abundance fitness of -0.05 or higher.
-- reply rule not met

-- ask Reported abundance fitness at or above -0.05? S51L
-- reply rule met

-- ask Kindly determine if abundance fitness recorded for L38K is above or exactly -0.05.
-- reply rule met

-- ask Item F57E with abundance fitness of -0.05 or above?
-- reply rule met

-- ask Given the entry A28C , answer whether its abundance fitness meets or surpasses -0.05.
-- reply rule not met

-- ask Hello, I need to know if A53T has measured abundance fitness not below -0.05. Thanks!
-- reply rule met

-- ask Please indicate if the recorded abundance fitness for F27E meets or exceeds -0.05.
-- reply rule not met

Where do the numbers come from? From the Human Domainome abundance scans (Beltran et al. 2025).
